- Test system: HCC 2998
- test_protocol: NCI tumour cell line growth inhibition, 48 h
The source made the active and inactive calls. No stated cut-off is given here; in the data, active = GI50 up to about 1.1 µM and inactive = higher.
Field 'call' accepts y (active), n (inactive)

Illustrative cases are given below, each with its answer.
Record request — test call for Cc1cc(Cl)ccc1NC(=O)CC1SC(Nc2ccccc2Cl)=NC1=O (stereo not given)
n

Field: outcome | Entry: Cc1nnc2n1N=C(c1cc(F)c(Cl)cc1Cl)/C(=C/c1ccc(Cl)cc1)S2
n

Lab log entry: O=C1c2ccccc2C(=O)N1CCn1ccc(NC(c2ccccc2)(c2ccccc2)c2ccccc2)nc1=O — outcome as called in the assay?
n

In this assay, the call recorded for O=C(NC(Nc1ccc(F)cc1)(C(F)(F)F)C(F)(F)F)C(C(F)(F)F)C(F)(F)F was what?
n

Recorded test outcome, item COC(=O)C(=O)CC(=O)CCn1[nH]c(=O)c(Cl)c(Cl)c1=O
n

***
Look up the recorded call for CC(C)OC(=O)c1ccc(NCC2=CC(=O)C=CC2=O)cc1Cl in this test.
n

Recorded call for Cc1cc(C2CC(O)C(CO)O2)c(F)cc1F (stereo not given) ?
n

###

- Tested on: HOP-92
- test_protocol: NCI tumour cell line growth inhibition, 48 h
The source made the active and inactive calls. Rule as the data show it: active = GI50 up to about 1.1 µM and inactive = higher.
measurement_kind: GI50

Any idea what GI50 came out for CC(C)=CCc1c2c(c3occ(-c4ccc(O)c(O)c4)c(=O)c3c1O)C=CC(C)(C)O2 on HOP-92?
2.07 µM (inactive)

What is its GI50 for HOP-92? Entry: Cc1cc(C)n2nc3nc(N)c(C#N)c(-c4ccccc4)c3c2n1
> 100 µM (inactive)

Query the reported GI50 for HOP-92; item: O=C1/C(=C/c2ccccc2)CCc2ccc(Cl)nc21
15.8 µM (inactive)

Others:
State its GI50 on HOP-92: CC1(C)CC[C@]2(C(=O)O)CC[C@]3(C)C(=CC[C@@H]4[C@@]5(C)CC[C@H](OC6OC(CO)C(O)C(O)C6OC6OC(CO)C(O)C(O)C6O)C(C)(C)[C@@H]5CC[C@]43C)[C@@H]2C1 (stereo not given in full)
17.6 µM (inactive)

Lab note: need GI50 with HOP-92 for entry CCCC1C(=O)C(CC)Cc2c(OC)ccc(OC)c21 (stereo not given) , please look it up.
> 100 µM (inactive)

###

- System: SR
- test_protocol: NCI tumour cell line growth inhibition, 48 h
Active and inactive are the calls of the source. No stated cut-off is given here; in the data, active = GI50 up to about 1.1 µM and inactive = higher.
Write down the outcome that applies. Available outcomes: active, inactive

Lab log entry: O=C(C#CP(=O)(O)c1ccccc1)c1ccccc1 — outcome as called in the assay?
inactive

Which outcome was entered for the molecule O=C1CCc2cc3c(cc21)CC1(Cc2cc4c(cc2C1)CCCC4)C3 in this test?
inactive

Which result was noted for this molecule in the test: COc1nc(=O)n(C2CC(F)C(CO)O2)cc1C (stereo not given)
inactive

Kindly provide the recorded test outcome for the following molecule: O=C(NC(Cc1ccccc1)P(=O)(O)c1ccccc1)OCc1ccccc1 (stereo not given)
inactive

GET /call?item= CCCCCCN(CCCCCC)C(=O)Cc1c2n(c3ccccc13)Cc1ccccc1-2 returns the recorded outcome of this test.
inactive

---
Which outcome did this test record for the molecule CC(C)NCCCNc1c2ccccc2nc2cccc([N+](=O)[O-])c12 ?
active

What did this assay record as the result for Cc1ccc(S(=O)(=O)NCCCN(CCCNS(=O)(=O)c2ccc(C)cc2)S(=O)(=O)c2ccc(C)cc2)cc1 ?
inactive

Hi, do you know how CN(C)CCNC(=O)c1cccc2c(NC(CS)C(=O)O)c3ccccc3nc12 (stereo not given) came out in this test?
inactive

State the result this test recorded for C=CCn1c(-c2ccc([N+](=O)[O-])cc2)cs/c1=N\C(P(=O)(O)O)P(=O)(O)O .
inactive

I would be grateful if you could indicate the recorded call for O=C1c2cc(-c3ccccc3)cnc2S(=O)(=O)N1c1ccc(Br)cc1 .
inactive

###

- Test system: KM12
- test_protocol: NCI tumour cell line growth inhibition, 48 h
The source made the active and inactive calls. Rule as the data show it: active = GI50 up to about 1.1 µM and inactive = higher.
measurement_kind: GI50

Example cases with answers are listed next.
Please give the measured GI50 for this compound: O=c1[nH]c2ccc(O)cc2o1
> 100 µM (inactive)

Data request, read-out GI50, for N#CSCc1cccc(Nc2cc(=O)[nH]c(=O)[nH]2)c1
97.1 µM (inactive)

Which measured GI50 value corresponds to CCOc1cc(C=O)c2c(ccc3ccc(OC)c(OC)c32)c1OC ?
27.2 µM (inactive)

May I ask what GI50 has been recorded for COC(=O)C(=O)CC(=O)CCn1[nH]c(=O)c(Cl)c(Cl)c1=O ?
> 100 µM (inactive)

What GI50 value was documented for this compound, COc1cccc(-n2c3nc(=O)n(C)c(=O)c-3nc3ccccc32)c1 ?
27.1 µM (inactive)

***
Can you look up the measured GI50 of CC(=O)NNC(=S)N/C=C1/C(=O)Oc2ccccc2C1=O for me?
> 100 µM (inactive)

For the compound C=CCOC(=O)CCCCCCCCCCCCCCCOC(=O)C1=C(CCC[C@@H](C)O[Si](C)(C)C(C)(C)C)NC(=O)N2[C@H](CC3(CC/C=C\[C@H](CC)O[Si](C(C)C)(C(C)C)C(C)C)OCCO3)CC[C@H]12 , what GI50 is on record?
> 100 µM (inactive)

Requested read-out: GI50. Entry: CC(C)=CCc1c2c(c3occ(-c4ccc(O)c(O)c4)c(=O)c3c1O)C=CC(C)(C)O2
1.72 µM (inactive)

What does the record list as GI50 for Cc1nc(N)c(N2CCN(S(=O)(=O)N(Cc3ccccc3)Cc3ccccc3)CC2)c(O)n1 ?
56.9 µM (inactive)

###

- Test system: OVCAR-5
- test_protocol: NCI tumour cell line growth inhibition, 48 h
Active and inactive are the calls of the source. Rule as the data show it: active = GI50 up to about 1.1 µM and inactive = higher.
measurement_kind: GI50

Completed entries (count: 8):
Report GI50 for O=c1oc2ccc(Cl)cc2cc1C1=CSC2=NCCN12 please.
50.5 µM (inactive)

I would be grateful if you could share the reported GI50 for CC(SC(=S)N1CCOCC1)C(=O)Nc1nnc(-c2ccccc2)o1 (stereo not given) .
> 100 µM (inactive)

Returns the measured GI50 for the input compound. Input: Cc1occc1C(=S)Nc1ccc(Cl)c(C(=O)OC(C(C)C)C(C)C)c1
22.6 µM (inactive)

Which GI50 value belongs to COC(=O)C(Cc1c[nH]c2ccccc12)NC(=O)C(Cc1c[nH]cn1)NC(=O)C1CCC(=O)N1C(=O)OCc1ccccc1 (stereo not given) ?
> 100 µM (inactive)

# lookup: GI50 of CC(=O)NC(C)c1ccc(/N=N/N2CCCC2)cc1 (stereo not given)
> 100 µM (inactive)

Recorded GI50 of CC(C)C(Br)CCC1=CCC(Br)(Br)C1 (stereo not given) , please.
16.7 µM (inactive)

Need GI50 of O=C(CCN1CCOCC1)C(=Cc1ccccc1)C(=O)CCN1CCOCC1 , thanks.
19.2 µM (inactive)

Entry COC(=O)[C@](NC(=O)OCc1ccccc1)([C@@H](C)Sc1ccc(C)cc1)C(F)(F)F has what GI50?
> 100 µM (inactive)

Others:
For the compound Oc1ccc(O)c(Sc2nnc(CCCCCCCCc3nnc(Sc4cc(O)ccc4O)o3)o2)c1 , what GI50 is on record?
95.9 µM (inactive)

# lookup: GI50 of COC(=O)C1C2CC3C(OC(=O)C31)C2OC(=O)[C@](OC)(c1ccccc1)C(F)(F)F (stereo not given in full)
> 100 µM (inactive)

###

- Tested on: M19-MEL
- test_protocol: NCI tumour cell line growth inhibition, 48 h
Activity calls are given as the source filed them. Cut-off read from the data, not from the text of the source: active = GI50 up to about 1.1 µM and inactive = higher.
Could you please pick one outcome from this set? active, inactive

// outcome(item) with item = N#CNCC(COCc1ccccc1)c1ccccc1 (stereo unspecified)
inactive

Status in this test for C/C(=N\Nc1nnc(S)n1N)c1c(O)cc(C)oc1=O ?
inactive

Check the results log: what was the call for COC1(OC)C2(Cl)C(Cl)=C(Cl)C1(Cl)C1c3ccc(C(C)=O)c4cccc(c34)C12 (stereo unspecified) ?
inactive

Which result was noted for this molecule in the test: C#CCNC(=O)NCCCCC(NC(C)=O)C(=O)NCc1ccccc1 (stereo unspecified)
inactive

Look up the recorded call for CC1OC(OP(=O)(OCc2ccccc2)OCc2ccccc2)C(OC(=O)c2ccccc2)C(OC(=O)c2ccccc2)C1I (stereo unspecified) in this test.
inactive

New cases:
Hi, sorry to bother you, what did the test record for COC(=O)C(=O)CC(=O)CCn1[nH]c(=O)c(Cl)c(Cl)c1=O ?
inactive

What was the test verdict on CCOc1ccc(OCC)c([P+](c2ccccc2)(c2ccccc2)c2ccccc2)c1 ?
active

###

- Tested on: HT-29
- test_protocol: NCI tumour cell line growth inhibition, 48 h
The source made the active and inactive calls. No stated cut-off is given here; in the data, active = GI50 up to about 1.1 µM and inactive = higher.
Log the outcome using a class from active, inactive

Example results:
Could you please tell me the result logged for CC1OC(OP(=O)(OCc2ccccc2)OCc2ccccc2)C(OC(=O)c2ccccc2)C(OC(=O)c2ccccc2)C1I (stereo not drawn) in this assay?
inactive

Can you look up the reported call for COC1=CC(=O)c2nc3ccccc3c3ccnc1c23 for me?
inactive

Please let me know the test result on file for O=C(c1ccccc1)c1nc2ccc(Cl)cc2cc1C(Br)Br .
active

# fetch the recorded call for Nc1cc2nc(-c3ccccc3)cn2cn1 here
inactive

Further cases:
Given C[Si](C)(C)[C@@]1([Se]c2ccccc2)CC[C@@H]1C(=O)c1ccccc1 , state the outcome it received in this test.
inactive

Record request — test call for CC(C)C(Br)CCC1=CCC(Br)(Br)C1 (stereo not drawn)
inactive

Name the outcome recorded for Cc1ccc(S(=O)(=O)N/N=C/C2(c3ccccc3)c3ccccc3-c3ccccc32)cc1 in the assay.
inactive

Short answer needed: outcome of this test for O=C(O)c1cc2c(ncc3c(=O)n(-c4ccccc4)[nH]c32)s1 ?
inactive

Assay outcome for ClCCN(CC#CCCCC#CCN(CCCl)CCCl)CCCl : what was it?
inactive
